# credit: patent US20240376097A1

Some compounds, each annotated with its measured IC50.
TARGET_OR_SYSTEM: Recombinant human Bcl-2 protein (Homo sapiens (Human))
Sequence (P10415 whole entry): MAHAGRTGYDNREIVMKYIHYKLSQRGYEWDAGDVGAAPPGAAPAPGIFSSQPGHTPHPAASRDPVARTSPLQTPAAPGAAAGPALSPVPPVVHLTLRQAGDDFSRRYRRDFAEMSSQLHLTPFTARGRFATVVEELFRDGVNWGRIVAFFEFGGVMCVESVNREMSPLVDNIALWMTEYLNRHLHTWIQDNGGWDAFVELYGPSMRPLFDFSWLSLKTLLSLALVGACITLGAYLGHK
TEST_PROTOCOL: Bcl-2 TR-FRET Assay
Assay type: binding
TEST_CONTEXT: wild type Bcl-2; unit inferred; read-out: Bcl-2 WT
The response must be a number in nM with no trailing unit.

Answered examples (3):
- CCc1ccc(CN2CCN(C3CC4(C3)CN(c3ccc(C(=O)NS(=O)(=O)c5ccc(NC[C@H]6CC[C@](C)(O)CC6)c([N+](=O)[O-])c5)c(Oc5cnc6[nH]cc(F)c6c5)c3)C4)[C@H](c3ccccc3C(C)C)C2)cc1OC: 0.79
- COc1cc(CN2CCN(C3CC4(C3)CN(c3ccc(C(=O)NS(=O)(=O)c5ccc(NC[C@H]6CC[C@](C)(O)CC6)c([N+](=O)[O-])c5)c(Oc5cnc6[nH]cc(F)c6c5)c3)C4)[C@H](c3ccccc3C(C)C)C2)ccc1OC1COC1: 0.04
- CC(C)c1ccccc1C1CN(Cc2ccc3c(c2)CCCO3)CCN1C1CC2(CCN(c3ccc(C(=O)NS(=O)(=O)c4ccc(NC[C@H]5CC[C@](C)(O)CC5)c([N+](=O)[O-])c4)c(Oc4cnc5[nH]ccc5c4)c3)CC2)C1 (stereo partly shown): 0.17

IC50 for `COc1cc(CN2CCN(C3CC4(CCN(c5ccc(C(=O)NS(=O)(=O)c6ccc(NC[C@H]7CC[C@](C)(O)CC7)c([N+](=O)[O-])c6)c(Oc6cnc7[nH]ccc7c6)c5)CC4)C3)[C@H](c3ccccc3C(C)C)C2)ccc1C` ? 0.24

Also CC(C)c1ccccc1C1CN(Cc2ccc(Cl)cc2)CCN1C1CC2(CCN(c3ccc(C(=O)NS(=O)(=O)c4ccc(NC[C@H]5CC[C@](C)(O)CC5)c([N+](=O)[O-])c4)c(Oc4cnc5[nH]ccc5c4)c3)CC2)C1 (stereo partly shown) ? 0.29

Now this one: COc1ccc(CN2CCN(C3CC4(CCN(c5ccc(C(=O)NS(=O)(=O)c6ccc(NC[C@H]7CC[C@](C)(O)CC7)c([N+](=O)[O-])c6)c(Oc6cnc7[nH]ccc7c6)c5)CC4)C3)C(c3ccccc3C(C)C)C2)cc1C (stereo partly shown) 0.26

Similarly, CC(C)c1ccccc1C1CC(Oc2ccccc2)CCN1C1CC2(CCN(c3ccc(C(=O)NS(=O)(=O)c4ccc(NC[C@H]5CC[C@](C)(O)CC5)c([N+](=O)[O-])c4)c(Oc4cnc5[nH]ccc5c4)c3)CC2)C1 (stereo partly shown) ? 0.2

Also `COc1cc(CN2CCN(C3CC4(C3)CN(c3ccc(C(=O)NS(=O)(=O)c5ccc(NC[C@H]6CC[C@](C)(O)CC6)c([N+](=O)[O-])c5)c(Oc5cnc6[nH]ccc6c5)c3)C4)[C@H](c3ccccc3C(C)C)C2)cc2c1OCCC2` ? 0.056

Would you kindly repeat that for COc1ccc(CN2CCN(C3CC4(CCN(c5ccc(C(=O)NS(=O)(=O)c6ccc(NC[C@H]7CC[C@](C)(O)CC7)c([N+](=O)[O-])c6)c(Oc6cnc7[nH]ccc7c6)c5)CC4)C3)C(c3ccccc3C(C)C)C2)cc1C#N (stereo partly shown) ? 0.26

Moving on to CC(C)c1ccccc1C1CN(Cc2cc(F)cc(F)c2)CCN1C1CC2(CCN(c3ccc(C(=O)NS(=O)(=O)c4ccc(NC[C@H]5CC[C@](C)(O)CC5)c([N+](=O)[O-])c4)c(Oc4cnc5[nH]ccc5c4)c3)CC2)C1 (stereo partly shown) 0.42

Input CCOc1ccc(CN2CCN(C3CC4(CCN(c5ccc(C(=O)NS(=O)(=O)c6ccc(NC[C@H]7CC[C@](C)(O)CC7)c([N+](=O)[O-])c6)c(Oc6cnc7[nH]ccc7c6)c5)CC4)C3)C(c3ccccc3C(C)C)C2)cc1 (stereo partly shown) 0.19

Try the compound `COc1cc(CN2CCN(C3CC4(CCN(c5ccc(C(=O)NS(=O)(=O)c6ccc(NC[C@H]7CC[C@](C)(O)CC7)c([N+](=O)[O-])c6)c(Oc6cnc7[nH]ccc7c6)c5)CC4)C3)[C@H](c3ccccc3C(C)C)C2)cc2c1OCC2` 0.076

Same again, this time with `CC(C)c1ccccc1[C@@H]1CN(Cc2ccc(F)c(F)c2)CCN1C1CC2(C1)CN(c1ccc(C(=O)NS(=O)(=O)c3ccc(NC[C@H]4CC[C@](C)(O)CC4)c([N+](=O)[O-])c3)c(Oc3cnc4[nH]cc(F)c4c3)c1)C2` 0.38

Again, but for `COc1ccc(CN2CCN(C3CC4(CCN(c5ccc(C(=O)NS(=O)(=O)c6ccc(NC[C@H]7CC[C@](C)(O)CC7)c([N+](=O)[O-])c6)c(Oc6cnc7[nH]cc(Cl)c7c6)c5)CC4)C3)[C@H](c3ccccc3C(C)C)C2)cc1` 0.54

And CC(C)c1ccccc1C1CN(Cc2ccc(C(F)(F)F)cc2)CCN1C1CC2(CCN(c3ccc(C(=O)NS(=O)(=O)c4ccc(NC[C@H]5CC[C@](C)(O)CC5)c([N+](=O)[O-])c4)c(Oc4cnc5[nH]ccc5c4)c3)CC2)C1 (stereo partly shown) ? 0.83

Further, for CC(C)c1ccccc1C1CN(Cc2ccc(F)c(F)c2)CCN1C1CC2(CCN(c3ccc(C(=O)NS(=O)(=O)c4ccc(NC[C@H]5CC[C@](C)(O)CC5)c([N+](=O)[O-])c4)c(Oc4cnc5[nH]ccc5c4)c3)CC2)C1 (stereo partly shown) ? 0.24
